So I've got Ki readings for UniProt Q72874, take a look.
Give bare numbers, in nM.

1) COc1cccc(CN2C(=O)N(Cc3cccc(OC)c3)N(Cc3ccccc3)C[C@@H](O)[C@H]2Cc2ccccc2)c1 | 0.22
2) O=C1N(Cc2ccc(CO)cc2)[C@H](Cc2ccccc2)[C@H](O)CN(Cc2ccoc2)N1Cc1ccc(CO)cc1 | 0.49

# evaluate next
Ki for O=C1N(Cc2ccc(CO)cc2)[C@H](Cc2ccccc2)[C@H](O)[C@@H](O)[C@@H](Cc2ccccc2)N1Cc1ccc(CO)cc1 [DMP-323] ?
0.23

Cited source: ChEMBL document CHEMBL1129048
